# run_description: label from the status in PepcDB records
measured_endpoint: protein production

- biopolymer_sequence: "MFHFSLSPRRTGRGARPRARLGAMLALAFLAGGLTAGPGNAAEGAGATAERQYCACMALARSRPDQAFEKAGQWKALGGGVPARHCEAVALLGLKEYGEAARRLEALAEDVKLARGLRVDLLTQAGQAWLAVGDLSRAYANQTTALQLAGARAQSGAPALSSVLPDLYIDRAVTLAQAGRDDEATTDLTKALALQPASVTALVLRASAQRRQGRLTAARADAEAAVKRAPNDAEARLERGDVRLALGDRDGARADWLKVLELAPREGAADAARARIETLDLKVR"
  reported: "failed"
- biopolymer_sequence: "MKEKISEKEYKALIRKIGKEHFDGEKEEYGDGTVGVWTYELRKYKLKPPVKVKYVTQEQFQEYKDSNNQRLIKIETTLAAQGEQIRIQVEQIKELQIEQKAQGETLKLILQTLQKMSDRLDKMEVKMDKMEEKMDKMEGKIDKIENRMDKMEVKMDKMEKRIDKLESKLEHHHHHH"
  reported: "failed"
- biopolymer_sequence: "MEYRITGKGVEISEAIKNYLEKRLDKIDRVIYDDDLVSFNVRIEKDGKNQYVVKFNMNLKGNIINVEERHPDIYTAIDFASDALEKQVKRLKERLKNHPHRSSALVETPLEEPGEFSPSDKVSSVKRVSLLNLDLDEAVMQMDELNHRFLVFRNVNTGEINLLYRDENGDIHLIEMAE"
  reported: "failed"

###

# run_description: label from the status in PepcDB records

- biopolymer_sequence: "MRLILNLIWLFFGGIWLALGYVFFGIIACIFIVTIPAGIASFRMANYALWPFGRTVVRNPKAGGFSALSNGLWFIIAGLWLAIGHLTTAAAQAITIIGIPLAIANIRMIPVTCFPFGKEIYDSNRIPFGYEPMVKF"
  protein production: "failed"
- biopolymer_sequence: "MSTETIEIFNNSDEWANQLKHALSKGENLALLHGLTPDILDRIYAYAFDYHEKGNITDAEIYYKFLCIYAFENHEYLKDFASVCQPKKKYQQAYDLYKLSYNYFPYDDYSVIYRMGQCQIGAKNIDNAMQCFYHIINNCEDDSVKSKAQAYIELLNDNSEDNGLEHHHHHH"
  protein production: "failed"
- biopolymer_sequence: "MAEKKWFDKVLSKWQYEPIQVFMRHLQSAEMDLSAIAVAYYLILTAFPLIVIAANIFPYLNIDIADLLRLMKQNLPKDIFRPASAIVENIFSKPSGSVLGVATLTGLWTMSRSLTSLQKAINKAYGASQHRDFFIGHLVGLLTSLIILFLLAFALIFSIFSKAAIQVLDKHYHLSDNITTIFLLLIQPITVLIIFVGLMLLYFLLPNVKIKKIRYILPGTLFTSFVMTFLSNLVGNYVVYNVERMVDIKMFGSVMIFIIMLWFIFLARILILGAIFNATYQEMSLGKLEGRSGDMIAILKKTLGNDSDLSPSQSIEDSHTD"
  protein production: "failed"

###

# run_description: label from the status in PepcDB records

- biopolymer_sequence: "MEGNFIVARFDKNTSFFEDLEEVCNKHGVKAGTVVWAIGMLKDFEVGYWNGQDYEKETFRERLEIVSLHGTIAENDPKYHIHASGARSNHMIVGGHLFSATVDPLIEIQIMKIEGPKMTRVQDPSDKLFKLKIE"
  protein production: "failed"
- biopolymer_sequence: "MLKKGNEMKAVIVYASVHHGNTKKIEEAMASVISADVIDVTRKIKPDLSGYDVIGFVSGVYFHTFHEGIKKCIEENMSSKGQKVFLVATCGLGYRDYTKGMKDTLAKKDVLCMGSFQCRGWDTYGIFGKIGGIAKKHPNDRDLKEAQEFVLKTVCKTNNLEHHHHHH"
  protein production: "failed"
- biopolymer_sequence: "MPAPAATYERVVYKNPSEYHYMKVCLEFQDCGVGLNAAQFKQLLISAVKDLFGEVDAALPLDILTYEEKTLSAILRICSSGLVKLWSSLTLLGSYKGKKCAFRVIQVSPFLLALSGNSRELVLD"
  protein production: "not failed"
- biopolymer_sequence: "MSHAHKKHKENAPKSLNFYVITISTSRYEKLLKKEPIVDESGDIIKQLLIENGHKIIGYSLVPDDKIKILKAFTDALSIDEVDVIISTGGTGYSPTDITVETIRKLFDREIEGFSDVFRLVSFNDPEVKAAAYLTKASAGIIGKKIVYLLPGSPDAVKLALKELILPEVGHLVYLVRS"
  protein production: "not failed"

###

# run_description: label from the status in PepcDB records
measured_endpoint: protein production

- biopolymer_sequence: "MGPMRTLTVAIDWILIILFVISIILLIYALVKKNKKMAKYAGIAAAIIFILLFIAMRFALTVKPGQ"
  measured_endpoint: "protein production"
  reported: "failed"
- biopolymer_sequence: "MRRFGKWLGRVLLAALCAALVIGLWKGEEIKRLMAVNSLFEPDLIVRNFSNMDAAFLHTPVGEAQTPPSALPDGPKMTLPDGTAAWLAARKVTSLVVLSNGQLVHESYHLGTKAEDRRISWSLAKSYISALTGIVLAQGSIASLDDPVTRYAPRLKGGAYDGATVRNVLNMATGVTFDEDYTDYDSDINRMGRVLALGGLMDDFAAGLTQTFARPGSEWQYVSIDTHVLGMVIRAATGRSVVDLMGAHIITPLGLESTPYYLTDGAGVAFALGGLNMTTRDYARFGQMMAQHGAWNGRQIVPKNWVIDSTTASAPTGPDEYGYGYQWWMPRDARPREYMGRGIYGQYLYINEEQGVVVALTAADAAFRDADVQQQNIALFREIADRVQGDANGKR"
  measured_endpoint: "protein production"
  reported: "failed"
- biopolymer_sequence: "MTRVDVVTRTLPPNEVSEANPWDTDRFWTVPNVLSVIRLIGVPIFLWLALGPRADGWAVAVLAVAGLTDWLDGRIARRWHQVSRIGQMLDPVADRLYIFATVIALTLRDVIPLWLVIVLIARDVCMACLMPALRTRGFTSLPVHFVGKAATFCLLYSFPLVLLGRFGTGGWTACRVLGWAFAVWGTGLYWWAFFLYLVQTIRIVRTLPRISSRGEYS"
  measured_endpoint: "protein production"
  reported: "failed"

###

# run_description: label from the status in PepcDB records
measured_endpoint: protein production

Consider the following illustrative entries.
- biopolymer_sequence: "MDLNNNKSNNIVKTLARWCLLLQAFMISSNTVALKEPDYVNMNITIRNSMTGLIRPEIVYRCQSKRKDYGWHRSPKPGVQFSFPIILIKGETKIPAIHICQIRSVLGTATLVIQNTYLDAEMCPRSSCAHEATPKGIVFRGLEWDFKTVFPKLKPVEYLELPWTPWPNRT"
  reported: "failed"
- biopolymer_sequence: "VKRKGVEVIIALDISNSMLAQDVQPSRLEKAKRLISRLVDELDNDKVGMIVFAGDAFTQLPITSDYISAKMFLESISPSLISKQGTAIGEAINLATRSFTPQEGVGRAIIVITDGENHEGGAVEAAKAAAEKGIQVSVLGVGMPEGAPIPVEGTNDYRRDREGNVIVTRLNEGMCQEIAKDGKGIYVRVDNSNSAQKAISQEISKMAKSDVE"
  reported: "not failed"
- biopolymer_sequence: "MDRNLVQKGDAPPSKRSDPGTEFCVDIVVKGRKTEVPERFRKHVAEKLKLEKIQKLDGKVISLDVEVSKEPNPRQADRCDRVEITLRSRGPVIRAEAAASDPYAALDLAAEKLGARLRKQHDKRFSRRGARRISAAEVADHVPGAATLNGNGDVVPTEKQDGVPTKKIGSLEVQGDGPLVVREKTHVAAPMSLDQALYEMELVGHDFYLFVDSETKEPSVVYRRHAYDYGVIHLTTDTMVTQAHAPDAGDALGGLEHHHHHH"
  reported: "failed"
- biopolymer_sequence: "NAEKVALAKKVADESAVLLENRNDILPLDLNKYKSVAVVGPNSNQAVLGDYAWTMGDTKEAVSLLQGLQESAGDKIMIRHAEGCDWWSQDKSHIAEAVEVVRNSDIAVVAVGTRSTYLGRSPKYSTAGEGFDLSSLELPGVQEELLKEIKKTGKPMIVVLIAGKPLAMPWVKENADALLVQWYAGEQQGCTLADILLGKVNPSGKLNVSFPRSTGNTPCFYNHFVTDREEPFDQPGTPEEPKGHYIFDKPEPLWNFGHGKSYTTF"
  reported: "not failed"

Looking up MAGAMRKMAVYLGLVEDDGYDGRGFDPDDDFEPELDPEPERDHRRHEPAHQSHGAHQSQRDEEVRVVQPPAQREPMPRAASLAAESSRPARIAPVASITQERASLEKSAPVIMPKVVSEREPYRITTLHPRTYNEARTIGEHFREGTPVIMNLTEMDDTDAKRLVDFAAGLVFGLHGSIERVTQKVFLLSPANVDVTAEDKARIAEGGFFNQSLEHHHHHH , I found its protein production recorded as failed

The sequence identified as MNDDLSWMLDSALEIPGALHAVLISADGLLMARTQDFDKDDADRVAAAMSGVQSLSRTLAFFCEDPSQTWRQTLVEFDGGWVFLISAGEGAYLGVSASPEVDMADITFRMQQLVAQLGKRLTTPPRENLGARS registered its protein production at failed

Taken from a protein production outcome set (Wang et al. 2014).
